B1: TPD52L1 (parent)
chain: ISKKFGDMSYSIRHSISMPAMRNS

variants of: B1; test: protein stability index of a GFP-peptide fusion (GPS, HEK-293T) (PSI 1-6); higher = more stable; settings: c terminus: a fixed tail appended;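 note: lentivirally expressed fusions sorted by FACS into six bins by GFP to DsRed ratio, PSI derived from sequencing read proportions per bin multiplied by bin number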
Parameter threshold = 2. Response is TRUE when protein stability index meets or exceeds it, else FALSE.

Say whether R22S shows protein stability index of 2 or more.
TRUE

Say whether N23A shows protein stability index of 2 or more.
FALSE

Say whether P19I shows protein stability index of 2 or more.
TRUE

Say whether I1F shows protein stability index of 2 or more.
FALSE

Say whether P19Q shows protein stability index of 2 or more.
TRUE

Say whether K3W shows protein stability index of 2 or more.
TRUE

Say whether S11Y shows protein stability index of 2 or more.
TRUE

Say whether S2T shows protein stability index of 2 or more.
TRUE

Say whether Y10M shows protein stability index of 2 or more.
TRUE

Say whether F5S shows protein stability index of 2 or more.
TRUE

Say whether M21K shows protein stability index of 2 or more.
TRUE

Say whether H14Q shows protein stability index of 2 or more.
TRUE

Say whether S24F shows protein stability index of 2 or more.
FALSE

Say whether M21P shows protein stability index of 2 or more.
TRUE

Say whether R13M shows protein stability index of 2 or more.
FALSE

Say whether S15D shows protein stability index of 2 or more.
FALSE

Say whether A20C shows protein stability index of 2 or more.
TRUE

Say whether K3H shows protein stability index of 2 or more.
TRUE

Say whether S11F shows protein stability index of 2 or more.
FALSE

Say whether I1P shows protein stability index of 2 or more.
TRUE

Say whether Y10P shows protein stability index of 2 or more.
TRUE

Say whether K4N shows protein stability index of 2 or more.
TRUE

Say whether S9D shows protein stability index of 2 or more.
TRUE

Say whether D7L shows protein stability index of 2 or more.
FALSE

Say whether I16L shows protein stability index of 2 or more.
TRUE

Say whether A20T shows protein stability index of 2 or more.
TRUE

Say whether I1C shows protein stability index of 2 or more.
TRUE

Say whether S24D shows protein stability index of 2 or more.
TRUE

Say whether Y10D shows protein stability index of 2 or more.
TRUE

Say whether N23P shows protein stability index of 2 or more.
TRUE

Say whether M8K shows protein stability index of 2 or more.
TRUE

Say whether I1K shows protein stability index of 2 or more.
TRUE

Say whether R13Y shows protein stability index of 2 or more.
FALSE

Say whether H14M shows protein stability index of 2 or more.
TRUE

Say whether P19M shows protein stability index of 2 or more.
TRUE

Say whether S2H shows protein stability index of 2 or more.
TRUE

Say whether Y10C shows protein stability index of 2 or more.
TRUE

Say whether S2P shows protein stability index of 2 or more.
TRUE

Say whether R22Q shows protein stability index of 2 or more.
TRUE

Say whether G6T shows protein stability index of 2 or more.
TRUE

Say whether S9R shows protein stability index of 2 or more.
TRUE

Say whether K4H shows protein stability index of 2 or more.
TRUE

Say whether M21G shows protein stability index of 2 or more.
TRUE

Say whether S24A shows protein stability index of 2 or more.
TRUE

Say whether R22Y shows protein stability index of 2 or more.
FALSE

Say whether F5V shows protein stability index of 2 or more.
TRUE

Say whether S15W shows protein stability index of 2 or more.
TRUE

Say whether I12P shows protein stability index of 2 or more.
TRUE

Say whether M18I shows protein stability index of 2 or more.
TRUE

Say whether S17P shows protein stability index of 2 or more.
TRUE

Say whether N23F shows protein stability index of 2 or more.
FALSE

Say whether N23C shows protein stability index of 2 or more.
FALSE

Say whether N23I shows protein stability index of 2 or more.
FALSE

Say whether K4F shows protein stability index of 2 or more.
FALSE

Say whether R22N shows protein stability index of 2 or more.
TRUE

Say whether M8I shows protein stability index of 2 or more.
TRUE

Say whether D7M shows protein stability index of 2 or more.
FALSE

Say whether M21Q shows protein stability index of 2 or more.
TRUE
